procedure_summary: protein stability index of a GFP-peptide fusion (GPS, HEK-293T) (PSI 1-6); higher = more stable;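 further: 24-mer peptide tiles fused after GFP, lentivirally expressed, FACS-sorted into six equal bins by GFP/DsRed ratio, decoded by Illumina sequencing, PSI is the read-weighted mean bin number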
test_parameters: treatment: MLN4924 1 uM, 8 h; c terminus: a fixed tail appended
metric_name: protein stability index
Please reply with the value in numeric form only.

YVYFFCTVPEILVHNIVIFMRTSV [TMEM106C] = 2.92

Ask: If you can, please state the reported protein stability index value of QLPFCGPNVIDNFLCDLYPLLKLA [OR4A15] .
Reply: 2.47

Ask: If you can, please state the reported protein stability index value of DWEAVPQRKLKPPIVPKIAGDGDT [PRKX] .
Reply: 4.87

Ask: If you can, please state the reported protein stability index value of FYKREMFDPAEKYKMDHRRRGIAL [CASP6] .
Reply: 2.78

Ask: If you can, please state the reported protein stability index value of LQLLREENRALQQLLEQKQAYWAQ [CBY2] .
Reply: 2.94

Ask: If you can, please state the reported protein stability index value of LRQLRELEEQFALEAGGYQAGAAR [PRPH] .
Reply: 4.24

Ask: If you can, please state the reported protein stability index value of FRDAAEEGGTAVTGGQTVVNPWII [SEPHS2] .
Reply: 3.54

Ask: If you can, please state the reported protein stability index value of KKHGTQNKRAALQALKRKKRFEKQ [CHMP4C] .
Reply: 4.52

Ask: If you can, please state the reported protein stability index value of MEDSPLPDLRDIELKLGRKVPESL [LURAP1L] .
Reply: 4.63
